meta.source: PubChem BioAssay

composite z-score: recorded values
Assay: binders from COS7 lysate, DM2A8 probe, primary screen, torsin A project, cell lysate, small-molecule microarray, fluorescence 635/667 (AID 1065)
Conditions: higher = more signal, COS7 lysate expressing mutant human TOR1A
Would you mind answering with just the numeric figure?

compound=[N-]=[N+]=NCc1ccccc1C[C@]1(C(=O)NCc2ccccc2)N=C(c2ccc(OCCCO)cc2)O[C@H]1c1ccccc1CN=[N+]=[N-] measure="composite z-score" measured_result=0.227
compound=COC(=O)[C@H](Cc1ccc(O)cc1)N1CC2=CCCC=C[C@@H]2[C@H]1[C@H](O)Cc1ccccc1 measure="composite z-score" measured_result=-0.214
compound=COCCCN1C(=O)[C@@]2(Cc3ccccc31)c1ccccc1C(=O)N(Cc1ccccc1OC)[C@H]2c1ccc(CO)cc1 measure="composite z-score" measured_result=-0.457
compound=CCCC[C@H]1OB(O)C[C@H]2C1=C(C)C[C@H]1C(=O)C=CC(=O)[C@H]12 measure="composite z-score" measured_result=-0.0474
compound=C=C(COC)/C(=C/C[C@@H](OC(C)=O)c1ccccc1OCCO)c1cc(C(=O)OC)ccc1OC measure="composite z-score" measured_result=0.377
compound="C[C@H]1NC(=O)C([C@@H](C)OCc2ccccc2)NC(=O)[C@@]23C(=O)N[C@@H](Cc4ccccc4)C2[C@H](C)[C@@]2(C)O[C@H]2C3/C=C/C/C=C\\CNC1=O (some centres not stated)" measure="composite z-score" measured_result=0.0677

What does the data say about its composite z-score? Entry: `NCCCC[C@@H]1NC(=O)[C@H]2C[C@@H](C(=O)NCc3ccc(F)cc3)[C@@H](c3ccc(O)cc3)N2C1=O`
0.0239

* * *

z-score: recorded values
Assay: modulators of S6 phosphorylation in cells, primary screen, cell-based, A549, cytoblot, luminescence, serum-stimulated (AID 1158);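 note: serum-stimulated A549 lung adenocarcinoma cells; signal is phosphorylated S6 detected by cytoblot immunostaining with HRP secondary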
Details: A549 phospho-S6 cytoblot, 5 h, higher = more signal
Would you mind answering with just the numeric figure?

compound=COc1ccc(CCNC(=O)[C@@]2(C)c3ccccc3C(=O)N(Cc3cc(C(F)(F)F)cc(C(F)(F)F)c3)[C@H]2c2ccc(CO)cc2)cc1 measure=z-score measured_result=2.76
compound="C[C@@H](OCc1ccccc1)C1NC(=O)[C@@]23C(=O)N[C@@H](Cc4ccccc4)C2[C@H](C)[C@@]2(C)O[C@H]2C3/C=C/C/C=C\\CNC(=O)[C@H](Cc2ccccc2)NC1=O (stereo partly drawn)" measure=z-score measured_result=0.858
compound=CC(C)CNC(=O)[C@@H]1c2ccccc2C(=O)N(CC23CC4CC(CC(C4)C2)C3)[C@H]1c1ccc(CO)cc1 measure=z-score measured_result=0.84
compound="CN1C=C(C(=O)OCCS(C)(=O)=O)C(C(=O)OCCS(C)(=O)=O)=CC(CCCO)=CC1c1ccc(CN2CCCC2)cc1 (stereo not drawn)" measure=z-score measured_result=-0.0029
compound=C=CCNC(=O)[C@@H]1[C@H]2C(=O)O[C@H](c3ccccc3)[C@H](c3ccccc3)N2[C@H](c2ccc(O)cc2)[C@@]12C(=O)Nc1ccc(C#CC3(O)CCCCCC3)cc12 measure=z-score measured_result=-0.339

What does the data say about its z-score? Entry: `NC(=O)NCC#Cc1ccc2c(c1)[C@]1(C(=O)N2)[C@H](C(=O)Nc2nc3ccccc3s2)[C@H]2C(=O)O[C@H](c3ccccc3)[C@H](c3ccccc3)N2[C@@H]1c1ccc(OCCO)cc1`
0.169

Consider next the compound C=CCC(OC(C)=O)[C@@H]1[C@@H](N(Cc2cccc3ccccc23)C(=O)c2ccc(-c3ccccc3)cc2)c2cc(OCCCO)ccc2N1C(=O)c1ccc2ccccc2n1 (stereo partly drawn) in the same way.
1.14

Consider next the compound `COC(=O)[C@@]1(Cc2ccc(OC)cc2)[C@H]2c3cc(C(=O)N(C)C)n(Cc4ccsc4Br)c3C[C@H]2CN1C(=O)c1ccccc1` in the same way.
-0.87

Consider next the compound `COCCOC(=O)N1C(=O)[C@@]2(c3cc(C#CC4(O)CCCCCC4)ccc31)[C@H](C(=O)NC[C@H](O)c1ccccc1)[C@H]1C(=O)O[C@H](c3ccccc3)[C@H](c3ccccc3)N1[C@@H]2c1ccc(O)cc1` in the same way.
0.632

Consider next the compound `CCOC(=O)C1=C[C@@H](C(C)(C)C)N(S(=O)(=O)c2ccc(C)cc2)[C@H]1c1ccccc1Cl` in the same way.
-0.535

Consider next the compound `CCOC(=O)C[C@H]1[C@H](OC(=O)Cc2ccc3c(c2)OCO3)[C@@H](NC(=O)c2ccccc2)c2cc(OCCCO)ccc2N1C(=O)Cc1ccc(OC)cc1` in the same way.
2.91

Consider next the compound `C[N+](C)(C)CCCCCCNC(=O)[C@H]1C[C@H]2C(=O)NCC(=O)N2[C@H]1c1cccc(OCCO)c1` in the same way.
0.142

Consider next the compound `Cc1ccc(S[C@]2(C(=O)NCCN3CCOCC3)CC(=O)N(C3CCCCC3)[C@@H]2c2ccc(CO)cc2I)cc1` in the same way.
-0.439
